Test system: K562
Experiment: NCI tumour cell line growth inhibition, 48 h
Calls of active or inactive are those of the source. Rule as the data show it: active = GI50 up to about 1.1 µM and inactive = higher.
Entry note: the call must match one of yes for active, no for inactive

Prompt: Please let me know the test result on file for COC(=O)c1ccc(O)c2nc3c(C=O)c(O)cc(O)c3nc12 [LOMOFUNGIN] .
Response: yes

Prompt: Please let me know the test result on file for O=C(CCn1[nH]c(=O)c(Cl)c(Cl)c1=O)NOCCCc1ccccc1 .
Response: no

Prompt: Please let me know the test result on file for CN(C)c1ccc(/C=C(\NC(=O)c2ccccc2)c2nn(C)c(=O)o2)cc1 .
Response: no

Prompt: Please let me know the test result on file for CC1=C2C(c3ccccc3)(c3ccccc3)C3C=CC2(C=N3)N(C(=O)NC2CCCCC2)C1=O (centres undefined) .
Response: no

Prompt: Please let me know the test result on file for Cn1c(=O)c2c(nc(NCCNc3nc4c(c(=O)n(C)c(=O)n4C)n3C)n2C)n(C)c1=O .
Response: no

Prompt: Please let me know the test result on file for C=C(C)CNC(=S)N(N)c1ccc2ccccc2c1 .
Response: no

Prompt: Please let me know the test result on file for CC1=C(C(=O)Nc2ccccc2C)C(c2ccc([N+](=O)[O-])cc2)C(C(=O)Nc2ccccc2C)=C(C)N1 .
Response: no

Prompt: Please let me know the test result on file for CC(C)c1ccc(/C=C2\CSCC3=C2N=C2SCC(=O)N2C3c2ccc(C(C)C)cc2)cc1 (centres undefined) .
Response: no

Prompt: Please let me know the test result on file for O=C1OC(c2ccc([N+](=O)[O-])cc2)=N/C1=C\c1ccc(O)cc1 .
Response: no

Prompt: Please let me know the test result on file for N#Cc1c(C#N)c(SSc2c(C#N)c(C#N)c(N)n2-c2cccc3ccccc23)n(-c2cccc3ccccc23)c1N .
Response: no

Prompt: Please let me know the test result on file for O=C1/C(=C/c2ccc(Br)cc2)CCC/C1=C\c1ccc(Br)cc1 .
Response: no

Prompt: Please let me know the test result on file for O=C(O)c1ccc(C2COc3ccc(Cl)cc3C2)cc1 (centres undefined) .
Response: no

Prompt: Please let me know the test result on file for CCOC(=O)CCN1C(=O)c2c(NC(=O)C(=O)O)cccc2S1(=O)=O .
Response: no

Prompt: Please let me know the test result on file for O=c1oc2ccccc2c(Nc2ccc3c(c2)Oc2ccccc2O3)c1[N+](=O)[O-] .
Response: no

Prompt: Please let me know the test result on file for O=C1C=CC(CC(=O)c2ccc3ccccc3c2)O1 (centres undefined) .
Response: no

Prompt: Please let me know the test result on file for COc1cc2cc(OC(C)=O)c3cc4c(cc3c2c(OC)c1OC)OCO4 .
Response: no
